Origin of the recorded values: ChEMBL document CHEMBL1124959

Target: Neutrophil elastase (Homo sapiens, UniProt P08246)
Sequence (P08246 whole entry): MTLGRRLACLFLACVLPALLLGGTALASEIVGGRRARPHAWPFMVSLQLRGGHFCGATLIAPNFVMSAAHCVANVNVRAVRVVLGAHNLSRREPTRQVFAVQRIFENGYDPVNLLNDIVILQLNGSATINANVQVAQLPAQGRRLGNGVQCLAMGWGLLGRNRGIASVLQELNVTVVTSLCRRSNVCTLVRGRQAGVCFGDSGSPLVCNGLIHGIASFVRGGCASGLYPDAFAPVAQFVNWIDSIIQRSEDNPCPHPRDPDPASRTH
Experiment: Binding affinity against human Elastase for less active diasteriomer
Peptide text beside a SMILES is read from it. * marks the point of attachment. Dansyl = CN(C)c1cccc2c(S(=O)(=O)*)cccc12; CF3 = FC(F)(F)*
Measured Attribute: Ki (nM)
Enter your answer as a number in nM; do not include the unit.

(Q) Enter reported Ki observed with Neutrophil elastase (Homo sapiens, UniProt P08246) for CC(C)[C@H](NC(=O)[C@@H]1CCCN1C(=O)[C@H](C)NC(=O)[C@H](C)NS(=O)(=O)c1cccc2c(N(C)C)cccc12)C(=O)C(F)(F)F (Dansyl-AAPV-CF3)
(A) 110

* * *

target: Chymotrypsinogen B (Homo sapiens, UniProt P17538)
Sequence (P17538 34-164 limits assumed, other chains not shown): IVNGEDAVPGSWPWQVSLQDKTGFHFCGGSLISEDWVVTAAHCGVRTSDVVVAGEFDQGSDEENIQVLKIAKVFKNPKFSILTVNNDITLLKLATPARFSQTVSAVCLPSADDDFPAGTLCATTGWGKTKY
Sequence (P17538 167-263 limits assumed, other chains not shown): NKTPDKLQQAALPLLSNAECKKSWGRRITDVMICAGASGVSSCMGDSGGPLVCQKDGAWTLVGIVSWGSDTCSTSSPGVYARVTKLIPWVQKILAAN
Peptide text beside a SMILES is read from it. * marks the point of attachment. MeOSuc = COC(=O)CCC(=O)*; CF3 = FC(F)(F)*
Measured Attribute: pKi
Value format note: pKi is -log10 of concentration (mol/L); just state the number.

(Q) What value of measured pKi is listed for COC(=O)CCC(=O)N[C@@H](C)C(=O)N[C@@H](C)C(=O)N1CCC[C@H]1C(=O)N[C@@H](Cc1ccccc1)C(=O)C(F)(F)F (MeOSuc-AAPF-CF3) ?
(A) 7.77

* * *

target: Neutrophil elastase (Homo sapiens, UniProt P08246); assay: Binding affinity against human leukocyte Elastase
pKi: −log10 of the molar value. Peptide text beside a SMILES is read from it. * marks the point of attachment. Cbz = O=C(OCc1ccccc1)*; CF3 = FC(F)(F)*
Measured Attribute: pKi

(Q) What value of measured pKi is listed for CC(C)[C@H](NC(=O)[C@H](CCCCNC(=O)OCc1ccccc1)NC(=O)OCc1ccccc1)C(=O)N1CCC[C@H]1C(=O)N[C@H](C(=O)C(F)(F)F)C(C)C (Cbz-K(Cbz)VPV-CF3) ?
(A) > 10.00

* * *

target: Pancreatic elastase (Sus scrofa, UniProt P08419+P00772); experiment: Binding affinity for porcine Elastase; format: protein assay
Peptide text beside a SMILES is read from it. * marks the point of attachment. Dansyl = CN(C)c1cccc2c(S(=O)(=O)*)cccc12; Boc = CC(C)(C)OC(=O)*; CF3 = FC(F)(F)*
For each entry below, report its Ki value.
Enter your answer as a number in nM; do not include the unit.

(Q) What value of measured Ki is listed for CC(C)[C@H](NC(=O)[C@@H]1CCCN1C(=O)[C@H](C)NC(=O)[C@H](C)NS(=O)(=O)c1cccc2c(N(C)C)cccc12)C(=O)C(F)(F)F (Dansyl-AAPV-CF3) ?
(A) 88

(Q) Also check CC(=O)N[C@@H](C)C(=O)N[C@@H](C)C(=O)N1CCC[C@H]1C(=O)N[C@@H](C)C(=O)C(F)(F)F (Ac-AAPA-CF3)
(A) 150

(Q) Also check CCOC(=O)C(F)(F)C(=O)[C@@H](NC(=O)[C@@H]1CCCN1C(=O)[C@H](C)NC(=O)[C@H](C)NC(=O)CCC(=O)OC)C(C)C
(A) 9900

(Q) Also check CC(=O)N1CCC[C@H]1C(=O)N[C@@H](C)C(=O)N1CCC[C@H]1C(=O)N[C@@H](C)C(=O)C(F)(F)F (Ac-PAPA-CF3)
(A) 240

(Q) Also check COC(=O)CCC(=O)NCCCC[C@H](NS(=O)(=O)C12CC3CC(CC(C3)C1)C2)C(=O)N1CCC[C@H]1C(=O)N[C@H](C(=O)C(F)(F)F)C(C)C
(A) 15

(Q) Also check COC(=O)CCC(=O)N[C@H](Cc1ccccc1)C(=O)N1CCC[C@H]1C(=O)N[C@H](C(=O)C(F)(F)F)C(C)C
(A) 28000

(Q) Also check CC(C)[C@H](NC(=O)[C@@H]1CCCN1C(=O)[C@H](Cc1ccccc1)NC(=O)OC(C)(C)C)C(=O)C(F)(F)F (Boc-Phe-Pro-Val-CF3)
(A) 1800

(Q) Also check CC(C)[C@H](NC(=O)[C@@H]1CCCN1C(=O)[C@H](C)NC(=O)[C@H](C)NC(=O)OC(C)(C)C)C(=O)C(F)(F)F (Boc-AAPV-CF3)
(A) 32

* * *

biological target: Neutrophil elastase (Homo sapiens); test: Binding affinity against human Neutrophil Elastase
Measured Attribute: Ki (µM)
Enter your answer as a number in µM; do not include the unit.

(Q) What value of measured Ki is listed for CC(=O)N1CCC[C@H]1C(=O)N[C@@H](C)C(=O)N1CCC[C@H]1C(=O)N[C@@H](C)C(=O)C(=O)O ?
(A) 66

* * *

molecular target: Neutrophil elastase (Homo sapiens, UniProt P08246); test: Binding affinity against human Elastase for more active diasteriomer
Peptide text beside a SMILES is read from it. * marks the point of attachment. Dansyl = CN(C)c1cccc2c(S(=O)(=O)*)cccc12; CF3 = FC(F)(F)*
Measured Attribute: pKi
Value format note: pKi is -log10 of concentration (mol/L); just state the number.

(Q) What value of measured pKi is listed for CC(C)[C@H](NC(=O)[C@@H]1CCCN1C(=O)[C@H](C)NC(=O)[C@H](C)NS(=O)(=O)c1cccc2c(N(C)C)cccc12)C(=O)C(F)(F)F (Dansyl-AAPV-CF3) ?
(A) 8.20

* * *

molecular target: Pancreatic elastase (Sus scrofa, UniProt P08419+P00772); assay: Binding affinity for porcine Elastase; assay type: protein assay
Peptide text beside a SMILES is read from it. * marks the point of attachment. MeOSuc = COC(=O)CCC(=O)*; CF3 = FC(F)(F)*
For each entry below, report its Ki value.
Enter your answer as a number in nM; do not include the unit.

(Q) Enter reported Ki observed with Pancreatic elastase (Sus scrofa, UniProt P08419+P00772) for COC(=O)C(=O)[C@H](C)NC(=O)[C@@H]1CCCN1C(=O)[C@H](C)NC(=O)[C@@H]1CCCN1C(C)=O
(A) 29

(Q) Also check COC(=O)CCC(=O)N[C@@H](C)C(=O)N[C@@H](C)C(=O)N1CCC[C@H]1C(=O)N[C@H](C(=O)C(=O)OC)C(C)C
(A) 680

(Q) Also check COC(=O)CCC(=O)N[C@@H](C)C(=O)N[C@@H](C)C(=O)N1CCC[C@H]1C(=O)N[C@H](C(=O)C(F)(F)F)C(C)C (MeOSuc-AAPV-CF3)
(A) 33

(Q) Also check CCOC(=O)C(=O)[C@H](C)NC(=O)[C@H](C)NC(=O)[C@H](C)NC(=O)[C@H](C)NC(=O)OCc1ccccc1
(A) 140

* * *

Target protein (sequence): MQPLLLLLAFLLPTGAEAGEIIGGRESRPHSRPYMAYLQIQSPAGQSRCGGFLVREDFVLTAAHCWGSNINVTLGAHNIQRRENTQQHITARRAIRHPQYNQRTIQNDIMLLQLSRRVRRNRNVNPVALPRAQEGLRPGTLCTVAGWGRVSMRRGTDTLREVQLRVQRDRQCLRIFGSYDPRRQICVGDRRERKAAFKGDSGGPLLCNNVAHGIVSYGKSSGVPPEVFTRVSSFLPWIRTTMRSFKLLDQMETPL
Peptide text beside a SMILES is read from it. * marks the point of attachment. Dansyl = CN(C)c1cccc2c(S(=O)(=O)*)cccc12; MeOSuc = COC(=O)CCC(=O)*; CF3 = FC(F)(F)*
Measured Attribute: Ki

(Q) What value of measured Ki is listed for CC(C)[C@H](NC(=O)[C@@H]1CCCN1C(=O)[C@H](C)NC(=O)[C@H](C)NS(=O)(=O)c1cccc2c(N(C)C)cccc12)C(=O)C(F)(F)F (Dansyl-AAPV-CF3) ?
(A) > 600 µM

(Q) Also check CC(=O)N[C@@H](C)C(=O)N[C@@H](C)C(=O)N1CCC[C@H]1C(=O)N[C@@H](C)C(=O)C(F)(F)F (Ac-AAPA-CF3)
(A) > 800 µM

(Q) Also check COC(=O)CCC(=O)N[C@H](C(=O)N1CCC[C@H]1C(=O)N[C@@H](Cc1ccccc1)C(=O)C(F)(F)F)C(C)C (MeOSuc-Val-Pro-Phe-CF3)
(A) 3 µM
